- Assayed Target: ATX (human His-tagged) (Homo sapiens (Human))
- Test Name: Human ATX enzyme inhibition assay (fluorescence quenching, MR121 substrate)
- Type: biochemical
- Particulars: 30 nM ATX, 1 μM MR121 substrate, 30° C., pH 8.0
pIC50: −log10 of the molar value.
Tag: 1 (yes) if measured pIC50 is not below 7, 0 (no) if it is.

Problem: Is the recorded value of pIC50 equal to or greater than 7 for this molecule? `O=C(c1cnc(OCC(F)(F)F)c(Cl)c1)N1C[C@@H]2[C@H](C1)[C@H]1CN(C(=O)c3ccc4[nH]nnc4c3)C[C@@H]21`
Result: 0 (no)

Problem: Is the recorded value of pIC50 equal to or greater than 7 for this molecule? `COc1nc(C(=O)N2C[C@@H]3[C@H]4CN(C(=O)c5ccc6[nH]nnc6c5)C[C@H]4[C@@H]3C2)cc2ccccc12`
Result: 1 (yes)

Problem: Is the recorded value of pIC50 equal to or greater than 7 for this molecule? `O=C(c1ccc2[nH]ccc2c1)N1C[C@@H]2[C@H](C1)[C@H]1CN(C(=O)c3ccc4[nH]nnc4c3)C[C@@H]21`
Result: 0 (no)

Problem: Is the recorded value of pIC50 equal to or greater than 7 for this molecule? `COCCOc1cc(C(=O)N2C[C@@H]3[C@H]4CN(C(=O)c5ccc6[nH]nnc6c5)C[C@H]4[C@@H]3C2)nc2cc(C(F)(F)F)ccc12`
Result: 1 (yes)

Problem: Is the recorded value of pIC50 equal to or greater than 7 for this molecule? `O=C(c1ccc2[nH]nnc2c1)N1C[C@@H]2[C@H](C1)[C@H]1CN(S(=O)(=O)c3ccc4cc(Cl)ccc4c3)C[C@@H]21`
Result: 0 (no)

###

- Assayed Target: ATX (human His-tagged) (Homo sapiens (Human), UniProt Q13822)
pIC50: −log10 of the molar value.
Tag: yes if measured pIC50 is not below 7, no if it is.

Problem: Is the recorded value of pIC50 equal to or greater than 7 for this molecule? `Cn1c(C(=O)N2C[C@@H]3[C@H]4CN(C(=O)c5ccc6[nH]nnc6c5)C[C@H]4[C@@H]3C2)cc2ccc(Cl)cc21`
Result: no

Problem: Is the recorded value of pIC50 equal to or greater than 7 for this molecule? `CCOc1c(C(=O)N2C[C@@H]3[C@H]4CN(C(=O)c5ccc6[nH]nnc6c5)C[C@H]4[C@@H]3C2)ccc2c1ccn2CC`
Result: yes

Problem: Is the recorded value of pIC50 equal to or greater than 7 for this molecule? `O=C(c1ccc2cc(Br)ccc2c1)N1C[C@@H]2[C@H](C1)[C@H]1CN(C(=O)[C@@H]3CCc4[nH]nnc4C3)C[C@@H]21`
Result: yes

Problem: Is the recorded value of pIC50 equal to or greater than 7 for this molecule? `O=C(c1cnc(OCC(F)(F)F)c(C2CC2)c1)N1C[C@@H]2[C@H](C1)[C@H]1CN(C(=O)c3ccc4[nH]nnc4c3)C[C@@H]21`
Result: yes

###

I'd be grateful if you could share measured pIC50 for these entries.
Note: pIC50 values are expressed as the negative base-10 logarithm of concentration in M.

Problem: Missing value: pIC50, ATX (human His-tagged) (Homo sapiens (Human), UniProt Q13822), entry O=C(c1ccc2[nH]nnc2c1)N1C[C@@H]2[C@H](C1)[C@H]1CN(C(=O)c3cc(OCC4CC4)c(Cl)cn3)C[C@@H]21 [Example 1.086] . Fill in?
Result: 7.77

Problem: Missing value: pIC50, ATX (human His-tagged) (Homo sapiens (Human), UniProt Q13822), entry O=C(c1cc2ccc(OC(F)(F)F)cc2[nH]1)N1C[C@@H]2[C@H](C1)[C@H]1CN(C(=O)[C@@H]3CCc4[nH]nnc4C3)C[C@@H]21 [Example 1.020] . Fill in?
Result: 8.22

Problem: Missing value: pIC50, ATX (human His-tagged) (Homo sapiens (Human), UniProt Q13822), entry O=C(c1ccc2[nH]nnc2c1)N1C[C@@H]2[C@H](C1)[C@H]1CN(C(=O)c3ccc(C4CC4)c(OCC4CC4)n3)C[C@@H]21 [Example 1.087] . Fill in?
Result: 7.82

###

I'd be grateful if you could share measured IC50 for these entries.
- Assayed Target: ATX (human His-tagged) (Homo sapiens (Human), UniProt Q13822)

Problem: Endpoint output: IC50 of O=C(c1ccc2cc(-c3ccccc3)ccc2c1)N1C[C@@H]2[C@H](C1)[C@H]1CN(C(=O)c3ccc4[nH]nnc4c3)C[C@@H]21 [Example 1.015] . Value?
Result: 11 nM

Problem: Endpoint output: IC50 of O=C(c1cnc(OCC(F)(F)F)c(-c2ccco2)c1)N1C[C@@H]2[C@H](C1)[C@H]1CN(C(=O)c3ccc4[nH]nnc4c3)C[C@@H]21 [Example 1.108] . Value?
Result: 6 nM

Problem: Endpoint output: IC50 of O=C(c1ccc(-c2ccc(Cl)cc2)cc1)N1C[C@@H]2[C@H](C1)[C@H]1CN(C(=O)c3ccc4[nH]nnc4c3)C[C@@H]21 [Example 1.017] . Value?
Result: 8 nM

Problem: Endpoint output: IC50 of Cn1c(C(=O)N2C[C@@H]3[C@H]4CN(C(=O)c5ccc6[nH]nnc6c5)C[C@H]4[C@@H]3C2)cc2cc(OC(F)(F)F)ccc21 [Example 1.032] . Value?
Result: 13 nM

###

- Assayed Target: ATX (human His-tagged) (Homo sapiens (Human), UniProt Q13822)
pIC50: −log10 of the molar value.
Tag: Y if measured pIC50 is not below 8, N if it is.

Problem: Is the recorded value of pIC50 equal to or greater than 8 for this compound? Cc1ccc2cc(C(=O)N3C[C@@H]4[C@H](C3)[C@H]3CN(C(=O)c5ccc6[nH]nnc6c5)C[C@@H]43)ccc2c1 [Example 1.013]
Result: N

Problem: Is the recorded value of pIC50 equal to or greater than 8 for this compound? CS(=O)(=O)c1cc(C(=O)N2C[C@@H]3[C@H]4CN(C(=O)c5ccccc5)C[C@H]4[C@@H]3C2)cnc1OCC(F)(F)F [Example 1.111]
Result: N

Problem: Is the recorded value of pIC50 equal to or greater than 8 for this compound? CC(C)Oc1cc(C(=O)N2C[C@@H]3[C@H]4CN(C(=O)c5ccc6[nH]nnc6c5)C[C@H]4[C@@H]3C2)nc2ccccc12 [Example 1.067]
Result: Y

Problem: Is the recorded value of pIC50 equal to or greater than 8 for this compound? O=C(c1ccc2[nH]nnc2c1)N1C[C@@H]2[C@H](C1)[C@H]1CN(C(=O)c3cc4ccccc4c(OCC4CC4)n3)C[C@@H]21 [Example 1.058]
Result: Y

Problem: Is the recorded value of pIC50 equal to or greater than 8 for this compound? O=C(c1ccc2ccccc2c1)N1C[C@@H]2[C@H](C1)[C@H]1CN(C(=O)c3ccc4[nH]nnc4c3)C[C@@H]21 [Example 1.012]
Result: N

Problem: Is the recorded value of pIC50 equal to or greater than 8 for this compound? O=C(c1ccc2[nH]nnc2c1)N1C[C@@H]2[C@H](C1)[C@H]1CN(C(=O)c3cccc(OCC(F)(F)F)n3)C[C@@H]21 [Example 1.098]
Result: N

Problem: Is the recorded value of pIC50 equal to or greater than 8 for this compound? CC(C)Oc1cc(C(=O)N2C[C@@H]3[C@H]4CN(C(=O)c5ccc6[nH]nnc6c5)C[C@H]4[C@@H]3C2)nc2cc(C(F)(F)F)ccc12 [Example 1.070]
Result: Y

Problem: Is the recorded value of pIC50 equal to or greater than 8 for this compound? Cn1c(C(=O)N2C[C@@H]3[C@H]4CN(C(=O)c5ccc6[nH]nnc6c5)C[C@H]4[C@@H]3C2)cc2ccccc21 [Example 1.024]
Result: N
